Source: patent US20210388107A1

target: T1, human SIRPαBIT, extracellular domain 1-370, Avi-FXa-Fc tag (human, biotinylated); assay: SPR, captured biotinylated antigen
T1 construct: also called huSIRPαBIT; v1
T1 sequence (chain, as listed by the source limits assumed): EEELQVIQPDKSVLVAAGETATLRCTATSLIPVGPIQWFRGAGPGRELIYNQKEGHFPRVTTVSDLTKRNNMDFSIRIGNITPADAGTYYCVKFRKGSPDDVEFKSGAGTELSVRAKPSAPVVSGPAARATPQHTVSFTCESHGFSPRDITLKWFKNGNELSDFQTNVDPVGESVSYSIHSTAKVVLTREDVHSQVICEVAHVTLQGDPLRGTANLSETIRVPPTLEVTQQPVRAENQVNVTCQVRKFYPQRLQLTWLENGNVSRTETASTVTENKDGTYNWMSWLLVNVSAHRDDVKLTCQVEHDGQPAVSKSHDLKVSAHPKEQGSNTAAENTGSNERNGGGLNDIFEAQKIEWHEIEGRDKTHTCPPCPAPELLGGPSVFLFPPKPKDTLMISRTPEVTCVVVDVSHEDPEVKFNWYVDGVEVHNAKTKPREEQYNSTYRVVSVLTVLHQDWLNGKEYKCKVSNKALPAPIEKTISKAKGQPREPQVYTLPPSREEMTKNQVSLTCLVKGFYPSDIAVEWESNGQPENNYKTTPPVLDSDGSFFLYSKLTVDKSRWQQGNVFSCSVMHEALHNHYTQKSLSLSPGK
pKd: −log10 of the molar value.
measured-endpoint: pKd

binder="humanized anti-SIRPα antibody 5 (antibody, human IgG1, kappa, L234A L235A, V domains shown, human IgG1 LALA, kappa; also called mAb 5) VH: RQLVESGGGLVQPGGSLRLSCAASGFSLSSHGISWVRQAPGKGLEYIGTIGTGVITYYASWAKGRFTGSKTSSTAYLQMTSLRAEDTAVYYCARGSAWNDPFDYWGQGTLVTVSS VL: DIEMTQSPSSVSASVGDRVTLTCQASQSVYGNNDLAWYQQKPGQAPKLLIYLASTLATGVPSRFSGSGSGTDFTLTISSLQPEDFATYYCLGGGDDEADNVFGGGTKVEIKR" measured_endpoint=pKd value_qualifier== endpoint_result=9.85
binder="humanized anti-SIRPα antibody 11 (antibody, human IgG1, kappa, L234A L235A, V domains shown, human IgG1 LALA, kappa; also called mAb 11) VH: RQLVESGGGLVQPGGSLRLSCAASGFSLSSHGISWVRQAPGKGLEWVGTIGTGVITYYASWAKGRFTGSKTSSTAYLQMTSLRAEDTAVYYCARGSAWNDPFDYWGQGTLVTVSS VL: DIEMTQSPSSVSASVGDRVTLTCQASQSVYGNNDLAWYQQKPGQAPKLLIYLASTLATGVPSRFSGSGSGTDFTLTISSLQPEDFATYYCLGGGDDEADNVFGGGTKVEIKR" measured_endpoint=pKd value_qualifier== endpoint_result=9.67
binder="humanized anti-SIRPα antibody 7 (antibody, human IgG1, kappa, L234A L235A, V domains shown, human IgG1 LALA, kappa; also called mAb 7) VH: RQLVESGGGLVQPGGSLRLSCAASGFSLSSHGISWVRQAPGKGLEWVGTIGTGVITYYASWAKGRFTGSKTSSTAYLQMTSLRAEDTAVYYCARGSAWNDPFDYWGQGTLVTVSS VL: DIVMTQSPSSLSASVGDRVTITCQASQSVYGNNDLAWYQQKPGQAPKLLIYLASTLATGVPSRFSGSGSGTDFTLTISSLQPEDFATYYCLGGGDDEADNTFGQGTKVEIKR" measured_endpoint=pKd value_qualifier== endpoint_result=9.42
binder="humanized anti-SIRPα antibody 9 (antibody, human IgG1, kappa, L234A L235A, V domains shown, human IgG1 LALA, kappa; also called mAb 9) VH: RQLVESGGGLVQPGGSLRLSCAASGFSLSSHGISWVRQAPGKGLEWVGTIGTGVITYYASWAKGRFTGSKTSSTAYLQMTSLRSEDTAVYYCARGSAWNDPFDYWGQGTLVTVSS VL: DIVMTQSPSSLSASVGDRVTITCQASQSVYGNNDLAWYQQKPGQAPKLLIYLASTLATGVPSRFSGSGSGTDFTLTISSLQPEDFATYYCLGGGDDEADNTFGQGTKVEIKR" measured_endpoint=pKd value_qualifier== endpoint_result=9.44
binder="29AM4-5-LALA (IgG1) (antibody, V domains shown, human IgG1 LALA, kappa; also called 29AM4-5huIgG1LALA) VH: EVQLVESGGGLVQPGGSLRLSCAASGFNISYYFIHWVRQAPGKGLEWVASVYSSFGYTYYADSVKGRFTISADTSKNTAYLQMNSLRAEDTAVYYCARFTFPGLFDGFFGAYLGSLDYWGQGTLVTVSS VL: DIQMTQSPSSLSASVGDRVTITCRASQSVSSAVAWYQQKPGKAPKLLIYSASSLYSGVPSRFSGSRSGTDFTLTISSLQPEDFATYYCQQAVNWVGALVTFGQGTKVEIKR" measured_endpoint=pKd value_qualifier=> endpoint_result=11.00
